Where these numbers come from: ChEMBL document CHEMBL1949526

assay text: Drug level in rat brain at 3 mg/kg, po after 3 hrs
Assay type: ADME, organism-based
Parameters: dose 3 mg/kg, route oral
test context: read-out: Drug uptake
endpoint name: concentration at 3 h (nM)
One number for each entry, in nM.

Data request: Param item = COc1cc(/C=C2\CCCN3C2=NOC3(C)c2ccc(F)cc2)ccc1-n1cnc(C)c1 (single isomer, unassigned) ; retrieve measured concentration at 3 h.
Data returned: 800

###

I'd appreciate it if you could supply IC50 values for the items below.
subject of test: Gamma-secretase
assay text: Modulation of gamma-secretase-mediated cleavage of human APP Swedish and London mutation expressed in HEK293 cells assessed as reduction of total amyloid beta level after 5 hrs by sandwich immunoassay
Assay type: cell-based

COc1cc(/C=C2\CCCN3C2=NO[C@]3(CN(C)S(C)(=O)=O)c2ccc(F)cc2)ccc1-n1cnc(C)c1    19.3 µM
COc1cc(/C=C2\CCCN3C2=NOC3(CO)c2cncc(F)c2)ccc1-n1cnc(C)c1 (single isomer, unassigned)    > 20 µM
COc1cc(/C=C2\CCCN3C2=NOC3(CO)c2cccc(F)c2)ccc1-n1cnc(C)c1 (single isomer, unassigned)    7.16 µM
COc1cc(/C=C2\CCCN3C2=NOC3(C)c2ccc(F)cc2)ccc1-n1cnc(C)c1 (single isomer, unassigned)    13.7 µM
COc1cc(/C=C2\CCCN3C2=NO[C@]3(CNCCO)c2ccc(F)cc2)ccc1-n1cnc(C)c1    > 20 µM
CNC[C@]1(c2ccc(F)cc2)ON=C2/C(=C/c3ccc(-n4cnc(C)c4)c(OC)c3)CCCN21    > 20 µM
COc1cc(/C=C2\CCCN3C2=NO[C@@]3(CO)c2ccc(F)cc2)ccc1-n1cnc(C)c1    > 20 µM

Data request: Field request: IC50 | item: COc1cc(/C=C2\CCCN3C2=NOC[C@@H]3c2cc(F)c(F)c(F)c2)ccc1-n1cnc(C)c1
Data returned: > 20 µM
